System: Cheumatopsyche
experimental-details: Insecticidal activity against first-instar larvae of Cheumatopsyche brevilineata after 48 hr
Type: functional, organism-based
readout-type: log10(EC50) (log10 of the value in µg/L)
Hello, just confirming the data are log10 of EC50 with units of µg/L.

Below, 2 compounds whose answers are already recorded.
- compound: "CNC(=O)ON=C(C)SC [METHOMYL]"
  log10(EC50): 1.83
- compound: "CNC(=O)Oc1cc(C)cc(C)c1"
  log10(EC50): 1.77

Lab book: log10(EC50) of O=[N+]([O-])/N=C1\NCCN1Cc1ccc(Cl)nc1 [IMIDACLOPRID] noted as 0.63

Sample COP(=S)(OC)Oc1ccc(SC)c(C)c1 [FENTHION] ; log10(EC50) observed: 0.33

Entry under test: N#C/N=C1\SCCN1Cc1ccc(Cl)nc1 [THIACLOPRID] . Its log10(EC50) was 0.72

Entry under test: CNC(=O)Oc1cccc2ccccc12 [CARBARIL] . Its log10(EC50) was 1.33
